# Tested on: Trypanosoma cruzi
# test.protocol: Antitrypanosomal activity against Trypanosoma cruzi Tulahuen amastigotes infected in mouse L929 cells assessed as reduction in infection level at 10 uM after 96 hrs by beta galactosidase reporter assay relative to control
# Assay type: functional
# condition.summary: L929, 96 h
Known inhibition at 10 µM of a selection of molecules
experimental.readout: inhibition at 10 µM (%)

smiles.input: CCOc1ccc(S(=O)(=O)NCc2cccnc2)c2ccccc12
unit.abbreviation: %
reading: 1.1
//
smiles.input: COc1cc(C)c(S(=O)(=O)Nc2cccnc2)cc1C(C)C
unit.abbreviation: %
reading: 26.7
//
smiles.input: COc1ccc(S(=O)(=O)NCc2ccccn2)c(C)c1C
unit.abbreviation: %
reading: 7.2
//
smiles.input: CCOc1ccc(S(=O)(=O)Nc2cccnc2)cc1CC
unit.abbreviation: %
reading: 3
//
smiles.input: CCOc1ccc(S(=O)(=O)Nc2cccnc2)c(C)c1C
unit.abbreviation: %
reading: 62
//
smiles.input: CCCOc1cc(C)c(S(=O)(=O)Nc2cccnc2)cc1C
unit.abbreviation: %
reading: 78
//
smiles.input: COc1ccc(S(=O)(=O)Nc2ccc(Cc3ccncc3)cc2)c2ccccc12
unit.abbreviation: %
reading: 0
//
smiles.input: CCOc1ccc(S(=O)(=O)Nc2ccncc2)c(C)c1C
unit.abbreviation: %
reading: 3.6
//
smiles.input: COc1c(C)cc(S(=O)(=O)Nc2cccnc2)c(C)c1C
unit.abbreviation: %
reading: 2.1
//
smiles.input: O=C(Cn1ccnc1[N+](=O)[O-])NCc1ccccc1
unit.abbreviation: %
reading: 89.3
//
smiles.input: CCOc1ccc(S(=O)(=O)Nc2ccncc2)c2ccccc12
unit.abbreviation: %
reading: 0.1
//
smiles.input: CCOc1ccc(S(=O)(=O)NCc2ccncc2)c(C)c1C
unit.abbreviation: %
reading: 65
//
smiles.input: CCOc1ccc(S(=O)(=O)NCc2ccccn2)c(C)c1C
unit.abbreviation: %
reading: 3.6
//
smiles.input: COc1ccc(S(=O)(=O)NCc2cccnc2)c2ccccc12
unit.abbreviation: %
reading: 28
//
smiles.input: COc1ccc2cc(S(=O)(=O)Nc3cccnc3)ccc2c1
unit.abbreviation: %
reading: 41.1
//
smiles.input: CCOc1ccc(S(=O)(=O)Nc2cccnc2)cc1C(C)(C)C
unit.abbreviation: %
reading: 1.9

====

Known CC50 at 24 h of a selection of compounds
# test.protocol: Cytotoxicity against Swiss Webster mouse cardiomyocyte assessed as reduction in cell viability after 24 hrs by PrestoBlue assay
# Design: species or system Cardiac Muscle Cell
# condition.summary: cardiomyocytes, read-out: LC50

smiles.input: CCCOc1cc(C)c(S(=O)(=O)Nc2cccnc2)cc1C
CC50 at 24 h: > 100 µM
--
smiles.input: CCOc1ccc(S(=O)(=O)Nc2cccnc2)c(C)c1C
CC50 at 24 h: > 100 µM
--
smiles.input: CCOc1ccc(S(=O)(=O)NCc2ccncc2)c(C)c1C
CC50 at 24 h: > 100 µM
--
smiles.input: O=C(Cn1ccnc1[N+](=O)[O-])NCc1ccccc1
CC50 at 24 h: > 1000 µM
--
smiles.input: COc1ccc2cc(S(=O)(=O)Nc3cccnc3)ccc2c1
CC50 at 24 h: > 100 µM

====

Known CC50 at 96 h of a selection of molecules
# test.protocol: Cytotoxicity against mouse L929 cells assessed as reduction in cell viability after 96 hrs by alamar blue assay
# Type: cell-based
# condition.summary: read-out: LC50

smiles.input: CCOc1ccc(S(=O)(=O)Nc2cccnc2)c2ccccc12
CC50 at 96 h: > 400 µM
//
smiles.input: O=C(Cn1ccnc1[N+](=O)[O-])NCc1ccccc1
CC50 at 96 h: > 400 µM
//
smiles.input: CCOc1ccc(S(=O)(=O)NCc2ccncc2)c(C)c1C
CC50 at 96 h: > 200 µM
//
smiles.input: COc1ccc(S(=O)(=O)NCc2cccnc2)c2ccccc12
CC50 at 96 h: > 200 µM
//
smiles.input: CCCOc1cc(C)c(S(=O)(=O)Nc2cccnc2)cc1C
CC50 at 96 h: > 200 µM

====

# test.protocol: Selectivity index, ratio of LC50 for mouse L929 cells to EC50 for Trypanosoma cruzi Tulahuen amastigotes
# Assay type: toxicity
# condition.summary: read-out: Selectivity Index
Known selectivity ratio of a selection of compounds

smiles.input: CCOc1ccc(S(=O)(=O)NCc2ccncc2)c(C)c1C
selectivity ratio: > 23
--
smiles.input: COc1ccc2cc(S(=O)(=O)Nc3cccnc3)ccc2c1
selectivity ratio: > 36
--
smiles.input: O=C(Cn1ccnc1[N+](=O)[O-])NCc1ccccc1
selectivity ratio: > 114
--
smiles.input: CCCOc1cc(C)c(S(=O)(=O)Nc2cccnc2)cc1C
selectivity ratio: > 15
--
smiles.input: CCOc1ccc(S(=O)(=O)Nc2cccnc2)c(C)c1C
selectivity ratio: > 13.5

Provenance of the data: ChEMBL document CHEMBL4118163
